Cited source: patent US9321764B2

measured_on: BRD4 (BDI_K57-E168) (Homo sapiens, UniProt O60885)
Construct: BD1: amino acids K57-E168
protocol_description: TR-FRET bromodomain binding assay, first bromodomain of BRD4
condition_set: His-tagged BD1, 100 nM Alexa647 probe; TR-FRET protocol A-E given per row
property: Ki (nM)

compound=CCS(=O)(=O)c1ccc(Oc2ccc(C(F)(F)F)cc2)c(-c2cn(C)c3c(=O)[nH]ccc23)c1 property=Ki observed_result=62
compound=Cn1cc(-c2cc(CS(=O)(=O)Nc3nccs3)ccc2Oc2ccc(F)cc2F)c2cc[nH]c(=O)c21 property=Ki observed_result=72
compound=Cn1cc(-c2cc(S(C)(=O)=O)ccc2NCC2CCCCC2)c2cc[nH]c(=O)c21 property=Ki observed_result=33

[I] CCc1cc(Oc2ccc(S(=O)(=O)CC)cc2-c2cn(C)c3c(=O)[nH]ccc23)ccc1Cl
[II] Cn1cc(-c2cc(CS(=O)(=O)N3CCOCC3)ccc2Oc2ccc(F)cc2F)c2cc[nH]c(=O)c21
Q) Which entry has a larger number for Ki, I or II ? Identify your pick by its label.
A) I
(I: 150 nM, II: 4.2 nM)

----------
Test system: breast cancer cell line MX-1
protocol_description: MX-1 cell line proliferation assay
Type: cell-based
condition_set: Homo sapiens, MX1, 72 h, MX-1 cells, 3-day proliferation assay, Cell Titer Glo; read-out: Cellular proliferation EC50
property: EC50 (nM)

Past entries and their recorded results:
smiles_str=Cn1cc(-c2cc(S(C)(=O)=O)ccc2NCC2CC2)c2cc[nH]c(=O)c21 property=EC50 observed_result=136
smiles_str=Cn1cc(-c2cc(CS(C)(=O)=O)cnc2Oc2ccc(F)cc2F)c2cc[nH]c(=O)c21 property=EC50 observed_result=37
smiles_str=CC(=O)Nc1ccc(C(=O)Nc2ccc(Oc3ccc(F)cc3F)c(-c3cn(C)c4c(=O)[nH]ccc34)c2)cc1 property=EC50 observed_result=310
smiles_str=CCS(=O)(=O)Nc1ccc(OCC2CC2)c(-c2cn(C)c3c(=O)[nH]ccc23)c1C property=EC50 observed_result=506
smiles_str=CNS(=O)(=O)Cc1ccc(Oc2ccc(F)cc2F)c(-c2cn(C)c3c(=O)[nH]ccc23)c1 property=EC50 observed_result=9
smiles_str=Cn1cc(-c2cc(CS(C)(=O)=O)ccc2Nc2ccccn2)c2cc[nH]c(=O)c21 property=EC50 observed_result=118
smiles_str=CCS(=O)(=O)Nc1ccc(OC2CCOCC2)c(-c2cn(C)c3c(=O)[nH]ccc23)c1 property=EC50 observed_result=93
smiles_str=Cn1cc(-c2cc(S(C)(=O)=O)ccc2OCC(C)(C)C)c2cc[nH]c(=O)c21 property=EC50 observed_result=176
smiles_str=Cn1cc(-c2cc(CS(N)(=O)=O)ccc2Oc2ccc(F)cc2F)c2cc[nH]c(=O)c21 property=EC50 observed_result=15
smiles_str=Cn1cc(-c2cc(CNS(=O)(=O)Cc3ccc(C#N)cc3)ccc2Oc2ccc(F)cc2F)c2cc[nH]c(=O)c21 property=EC50 observed_result=456

[A] Cn1cc(-c2cc(CNCc3ccoc3)ccc2Oc2ccc(F)cc2F)c2cc[nH]c(=O)c21
[B] Cn1cc(-c2cc(S(C)(=O)=O)ccc2OCC2CCOCC2)c2cc[nH]c(=O)c21
Q) For the two items A and B , which reports the higher EC50 value? Write down the label of the entry you select.
A) A

----------
measured_on: BRD4 (BDI_K57-E168) (Homo sapiens, UniProt O60885)
Construct: BD1: amino acids K57-E168
protocol_description: TR-FRET bromodomain binding assay, first bromodomain of BRD4
condition_set: His-tagged BD1, 100 nM Alexa647 probe; TR-FRET protocol A-E given per row
property: Ki (nM)

molecule="Cn1cc(-c2cc(S(C)(=O)=O)ccc2OCCc2cccs2)c2cc[nH]c(=O)c21 [Example 39]" observed_result=63
molecule="Cn1cc(-c2cc(CS(C)(=O)=O)ccc2NCC2CC2)c2cc[nH]c(=O)c21 [Example 110]" observed_result=61

[1] Cn1cc(-c2cc(NCc3ccnc4ccccc34)ccc2Oc2ccc(F)cc2F)c2cc[nH]c(=O)c21 [Example 179]
[2] CCS(=O)(=O)C(C)c1ccc(Oc2ccc(F)cc2F)c(-c2cn(C)c3c(=O)[nH]ccc23)c1 (single isomer, unassigned) [Example 57]
Q) Returns: the label, 1 or 2 , whose recorded Ki is the lower number. Reply with the label of the item you choose.
A) 2

----------
Test system: breast cancer cell line MX-1
protocol_description: MX-1 cell line proliferation assay
Type: cell-based
condition_set: Homo sapiens, MX1, 72 h, MX-1 cells, 3-day proliferation assay, Cell Titer Glo; read-out: Cellular proliferation EC50
pEC50: −log10 of the molar value.
property: pEC50

Recorded results for 2 compounds are shown here.
smiles_str=Cn1cc(-c2cc(CNS(=O)(=O)Cc3ccc(Cl)cc3)ccc2Oc2ccc(F)cc2F)c2cc[nH]c(=O)c21 property=pEC50 observed_result=5.85
smiles_str=CCS(=O)(=O)c1ccc(Oc2c(C)nn(C)c2C)c(-c2cn(C)c3c(=O)[nH]ccc23)c1 property=pEC50 observed_result=7.02

[a] CCS(=O)(=O)c1ccc(Oc2ccc(C#N)cc2)c(-c2cn(C)c3c(=O)[nH]ccc23)c1
[b] Cn1cc(-c2cc(S(=O)(=O)N3CC(F)(F)C3)ccc2OCC2CC2)c2cc[nH]c(=O)c21
Q) Hello, I am sorting some records. Could you say if a or b has the smaller pEC50 value? Give the label of your selection.
A) b

----------
measured_on: BRD4 (BDII_E352-M457) (Homo sapiens)
Construct: proliferation; Protocol
protocol_description: TR-FRET bromodomain binding assay, second bromodomain of BRD4
condition_set: His-tagged BD2, 30 nM Alexa647 probe; TR-FRET protocol A-E given per row
property: Ki (nM)

Please review the entries below; each comes with its answer.
compound=Cn1cc(-c2cc(NC(=O)Cn3cc(-c4ccccc4F)cn3)ccc2Oc2ccc(F)cc2F)c2cc[nH]c(=O)c21 observed_result=105
compound="Cn1cc(-c2cc(S(C)(=O)=O)ccc2OCC2CCOC2)c2cc[nH]c(=O)c21 (stereo not shown)" observed_result=117
compound=Cn1cc(-c2cc(CNCc3c[nH]cn3)ccc2Oc2ccc(F)cc2F)c2cc[nH]c(=O)c21 observed_result=478
compound=CCS(=O)(=O)c1ccc(Oc2c(C)nn(C)c2C)c(-c2cn(C)c3c(=O)[nH]ccc23)c1 observed_result=39
compound=Cn1cc(-c2cc(NS(C)(=O)=O)c(F)cc2Oc2ccc(F)cc2F)c2cc[nH]c(=O)c21 observed_result=31

[I] CCS(=O)(=O)c1ccc(Oc2cncc(C)n2)c(-c2cn(C)c3c(=O)[nH]ccc23)c1
[II] Cn1cc(-c2cc(NC(=O)Cc3cc(Cl)ccc3F)ccc2Oc2ccc(F)cc2F)c2cc[nH]c(=O)c21
[III] Cn1cc(-c2cc(S(C)(=O)=O)ccc2OCC2COC2)c2cc[nH]c(=O)c21
[IV] CCS(=O)(=O)c1ccc(Oc2ccc(F)cc2F)c(-c2cn(C)c3c(=O)[nH]ccc23)c1
Q) Thanks in advance: please rank these 4 entries by Ki, highest to lowest. Lab note: record answer as labels in requested order.
A) I, III, II, IV

[I] CNC(=O)c1cc2c(-c3cn(C)c4c(=O)[nH]ccc34)c(OCC3CC3)ccc2[nH]1
[II] Cn1cc(-c2cc(CS(C)(=O)=O)ccc2Nc2ccc(F)cc2F)c2cc[nH]c(=O)c21
Q) Given the two records I and II , choose the one whose Ki value is lower. API: response body contains the label of the selected item.
A) II
(II: 55 nM, I: 407 nM)

[A] COc1ccccc1S(=O)(=O)NCc1ccc(Oc2ccc(F)cc2F)c(-c2cn(C)c3c(=O)[nH]ccc23)c1
[B] CCc1cc(Oc2ccc(S(=O)(=O)CC)cc2-c2cn(C)c3c(=O)[nH]ccc23)ccc1Cl
Q) Between these two entries, A and B , state which has the higher Ki. Your answer should be the label attached to the chosen record.
A) A
(A: 1150 nM, B: 84 nM)

[P] CCS(=O)(=O)Nc1ccc(O[C@H]2CC[C@@H](OC)CC2)c(-c2cn(C)c3c(=O)[nH]ccc23)c1
[Q] Cn1cc(-c2cc(CNS(=O)(=O)CC(F)(F)F)ccc2Oc2ccc(F)cc2F)c2cc[nH]c(=O)c21
Q) Between the entries labelled P and Q , which has a larger Ki value on record? Lab note: record the label of whichever item you select.
A) Q
(Q: 109 nM, P: 29 nM)

[P] Cc1c[nH]c(=O)c2c1c(-c1cc(S(C)(=O)=O)ccc1OCCC1CC1)cn2C
[Q] Cn1cc(-c2cc(CS(C)(=O)=O)cnc2Cl)c2cc[nH]c(=O)c21
[R] CC(C)S(=O)(=O)Nc1ccc(Oc2ccc(F)cc2F)c(-c2cn(C)c3c(=O)[nH]ccc23)c1
[S] CCS(=O)(=O)Nc1ccc(Oc2ccc(F)cc2F)c(-c2cn(C)c3c(=O)[nH]c(C(=O)NCC4CCCC4)cc23)c1
[T] Cn1cc(-c2cc(NCCC(C)(C)C)ccc2Oc2ccc(F)cc2F)c2cc[nH]c(=O)c21
Q) Give the ascending ranking of the items by reported Ki. Answer format: the labels, ordered as requested.
A) S, R, P, T, Q

[P] CC(C)CCC(=O)Nc1ccc(Oc2ccc(F)cc2F)c(-c2cn(C)c3c(=O)[nH]ccc23)c1
[Q] Cn1cc(-c2cc(S(=O)(=O)N3CC(F)(F)C3)ccc2OCC2CC2)c2cc[nH]c(=O)c21
Q) Which of these two has the smaller recorded Ki: P or Q ? Mark your answer with the label of the selected entry.
A) Q

[a] Cn1cc(-c2cc(CNS(=O)(=O)Cc3ccc(Cl)cc3)ccc2Oc2ccc(F)cc2F)c2cc[nH]c(=O)c21
[b] CCS(=O)(=O)c1ccc(Oc2cccnc2)c(-c2cn(C)c3c(=O)[nH]ccc23)c1
[c] Cn1cc(-c2cc(S(C)(=O)=O)ccc2OC2CCCOC2)c2cc[nH]c(=O)c21 (stereo not shown)
Q) Returns the items ordered by Ki, from maximum to minimum. Reply with the item labels sorted in the order that was asked for.
A) a, b, c

[P] CCS(=O)(=O)Nc1ccc(OC2COC2)c(-c2cn(C)c3c(=O)[nH]ccc23)c1
[Q] Cn1cc(-c2cc(S(C)(=O)=O)ccc2OCC(C)(C)C)c2cc[nH]c(=O)c21
[R] Cn1cc(-c2cc(CNCCC(C)(C)C)ccc2Oc2ccc(F)cc2F)c2cc[nH]c(=O)c21
Q) Sort the 3 compounds by Ki; largest first, smallest last. Thanks in advance for listing the labels in the requested order.
A) R, P, Q

[I] Cn1cc(-c2cc(CNS(=O)(=O)C3CCCC3)ccc2Oc2ccc(F)cc2F)c2cc[nH]c(=O)c21
[II] Cn1cc(-c2cc(CS(C)(=O)=O)ccc2Nc2ccc(F)cc2)c2cc[nH]c(=O)c21
Q) Param pair: I , II . Output: the one whose Ki is numerically greater. Answer by quoting the chosen item's label.
A) I
